Hello, the source for this data is PubChem BioAssay AID743262, in case you need it.

molecular target: Glucagon-like peptide 1 receptor (Homo sapiens); test: qHTS of GLP-1 Receptor Agonists: Hit Validation; settings: HEK293 GLP-1R, cAMP-response luciferase, 4-6 h; series mostly up to 46.1 µM
In all, about 1,300 compounds went through this assay and about 25 (2%) were called active. Inconclusive results (about 9%) are left out. Calls come from the whole dose curve; as a rule, active = well fitted activation curve with a large enough effect; inconclusive = small, poorly fitted or top-dose-only effect; inactive = flat fitted curve, though single readings scatter. Only a selection was taken, and actives are over-represented in it overall.
Result category, one only: Y for active, N for inactive

Completed entries (count: 2):
> print(dat)
                                   molecule  label
1  Cc1c(C(=O)N(C)C(C)c2ccccn2)oc2c(F)cccc12 (stereo not given)      N
2       NS(=O)(=O)c1cccc(NC(=O)Nc2ccccc2)c1      N

Ask: Returns: the outcome recorded for `CCCCn1c(=NC(=O)c2cccnc2)c(C(=O)OCC)cc2c(=O)n3ccccc3nc21` in this assay.
Result: N

Ask: Returns: the outcome recorded for `COc1ccc(C2=Nn3c(nnc3C3CCCCC3)SC2)cc1OC` in this assay.
Result: Y

Ask: Returns: the outcome recorded for `Cc1nc(N2CCOCC2)c2c(C)c(C(=O)Nc3ccccc3C(F)(F)F)sc2n1` in this assay.
Result: N

Ask: Returns: the outcome recorded for COC(=O)CCSCC(=O)N1N=C(c2ccc(OC)cc2)CC1c1cccc(OC)c1OC (stereo not given) in this assay.
Result: N

Ask: Returns: the outcome recorded for `COc1ccc(CCN(C)C/C=C/c2ccccc2[N+](=O)[O-])cc1OC` in this assay.
Result: N

Ask: Returns: the outcome recorded for `COc1ccc(Cc2noc(-c3ccc(OC)c(OC)c3)n2)cc1OC` in this assay.
Result: N

Ask: Returns: the outcome recorded for `CCOC(=O)c1c(NC(=O)COC)sc(C)c1C` in this assay.
Result: N

Ask: Returns: the outcome recorded for `CCN(CC)CC(=O)Nc1scc2c1c(=O)oc1ccccc12` in this assay.
Result: Y

====

target: Glucagon-like peptide 1 receptor (Homo sapiens); test: qHTS of GLP-1 Receptor Agonists: Hit Validation; details: HEK293 GLP-1R, cAMP-response luciferase, 4-6 h; series mostly up to 46.1 µM
In all, about 1,300 compounds went through this assay and about 25 (2%) were called active. Inconclusive results (about 9%) are left out. The call rests on the fitted dose curve; in most records, active means well fitted activation curve with a large enough effect; inconclusive means small, poorly fitted or top-dose-only effect; inactive means flat fitted curve, though single readings scatter. What follows is part of a selection rich in actives, with near analogues and random picks from the rest.
Result category, one only: active, inactive

> print(dat)
                                   molecule     label
1    O=C(NCc1cccs1)c1cccc2c(-c3cccnc3)coc12    active
2        COc1ccc(-c2cc(C3CC3)nc(N)c2C#N)cc1  inactive
3  CCOc1ccc(Oc2c(/C=N/NC(N)=O)c(C)nn2-c2ccccc2)cc1  inactive
4       CCOC(=O)c1cn(-c2ccccc2)nc1-c1ccncc1  inactive
5  CCOC(=O)c1c(C)[nH]c(C)c1C(=O)COC(=O)c1sccc1C  inactive
6  COc1ccc(C(=O)NCC2(c3ccc(OC)c(OC)c3)CCCC2)cc1OC  inactive
7               CCC(=O)Nc1sc2c(c1C#N)CCCCC2  inactive
8  COCc1cccc(-c2csc(C(C)(O)c3cccc(F)c3)n2)c1 (stereo unspecified)  inactive

Ask: Returns: the outcome recorded for `CSc1ncccc1C(=O)OCc1c(F)cccc1Cl` in this assay.
Result: inactive

Ask: Returns: the outcome recorded for CC1(c2ccccc2)NC(=O)N(CC(=O)NNC(=O)c2ccccc2F)C1=O (stereo unspecified) in this assay.
Result: inactive

Ask: Returns: the outcome recorded for `COC(=O)c1ccc(CSc2nnc3nc(C)cc(C)n23)cc1` in this assay.
Result: inactive

====

target: Glucagon-like peptide 1 receptor (Homo sapiens); assay: qHTS of GLP-1 Receptor Agonists: Hit Validation; conditions: HEK293 GLP-1R, cAMP-response luciferase, 4-6 h; series mostly up to 46.1 µM
The campaign covered roughly 1,300 compounds. About 25 (2%) were called active. About 9% were inconclusive and are not listed. Calls come from the whole dose curve; as a rule, active = well fitted activation curve with a large enough effect; inconclusive = small, poorly fitted or top-dose-only effect; inactive = flat fitted curve, though single readings scatter. Many of the other results were omitted from the sample, so actives are more common in it than they were.
Result category, one only: t for active, f for inactive

> print(dat)
                                   compound  label
1  COc1ccc(F)cc1-c1cc(NC(C)=O)c2ncc(-c3cc(OC)c(OC)c(OC)c3)n2c1      f

Ask: Returns: the outcome recorded for `O=C(Nc1ccccc1)OCc1cc(-c2ccccc2Cl)on1` in this assay.
Result: f

Ask: Returns: the outcome recorded for COc1ccc(CC(=O)OCC(=O)N2c3ccccc3CC2C)cc1OC (stereo not given) in this assay.
Result: f

====

molecular target: Glucagon-like peptide 1 receptor (Homo sapiens) (UniProt P43220); assay: qHTS of GLP-1 Receptor Agonists: Hit Validation; details: HEK293 GLP-1R, cAMP-response luciferase, 4-6 h; series mostly up to 46.1 µM
Sequence (P43220 whole entry, looked up): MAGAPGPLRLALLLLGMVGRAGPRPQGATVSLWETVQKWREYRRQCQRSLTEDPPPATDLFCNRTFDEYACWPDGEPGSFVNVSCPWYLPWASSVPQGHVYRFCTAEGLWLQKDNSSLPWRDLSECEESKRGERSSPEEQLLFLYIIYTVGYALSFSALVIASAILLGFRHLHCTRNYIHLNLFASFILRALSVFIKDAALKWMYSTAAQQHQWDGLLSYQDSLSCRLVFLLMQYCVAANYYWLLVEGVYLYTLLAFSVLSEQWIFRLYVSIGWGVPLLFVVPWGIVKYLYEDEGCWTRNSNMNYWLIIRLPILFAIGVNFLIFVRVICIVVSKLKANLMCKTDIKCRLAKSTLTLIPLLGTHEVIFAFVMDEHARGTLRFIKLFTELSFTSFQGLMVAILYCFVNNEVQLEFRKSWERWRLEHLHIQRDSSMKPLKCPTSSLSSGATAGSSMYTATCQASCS
In all, about 1,300 compounds went through this assay and about 25 (2%) were called active. Roughly 9% stayed inconclusive and do not appear here. Calls come from the whole dose curve; as a rule, active = well fitted activation curve with a large enough effect; inconclusive = small, poorly fitted or top-dose-only effect; inactive = flat fitted curve, though single readings scatter. The list comes from a sample in which actives are over-represented; it also holds close analogues and randomly drawn compounds.
Result category, one only: active, inactive

Completed entries (count: 10):
> print(dat)
                                    molecule     label
 1        CCOc1ncccc1C(=O)OCc1ccc(C(=O)OC)o1  inactive
 2  CCOC(=O)c1c(C)n(-c2ccccc2)c2ccc(OCCN(C)C)cc12  inactive
 3  COc1cccc(C2CC(=O)Nc3cc(OC)c(OC)c(OC)c32)c1OC (stereo not drawn)  inactive
 4        CCOC(=O)c1c(C)[nH]c2cc(Br)c(O)cc12  inactive
 5  CCCCCCSC1=C(C#N)C(c2ccc(O)cc2)CC(=O)N1 (stereo not drawn)  inactive
 6       N#Cc1c(NCCCO)nc(-c2ccccc2)c2c1CCCC2  inactive
 7  COc1ccc(-c2nnc(OCc3nc4ccccc4n3C)c3ccccc23)cc1  inactive
 8  COc1cc2c(cc1OC)CN(C(=O)c1ccc(S(=O)(=O)N(C)c3ccccc3)cc1)CC2  inactive
 9          CSc1nnc(C)c(/C=C/Nc2ccc(F)cc2)n1  inactive
10   COc1ccc(-c2nn3c(COc4ccccc4)nnc3s2)cc1OC  inactive

Pending molecule:
Ask: Returns: the outcome recorded for `Cc1ccc(CNCCCSc2ncccn2)cc1` in this assay.
Result: inactive

====

molecular target: Glucagon-like peptide 1 receptor (Homo sapiens); assay: qHTS of GLP-1 Receptor Agonists: Hit Validation; details: HEK293 GLP-1R, cAMP-response luciferase, 4-6 h; series mostly up to 46.1 µM
Hit rate of the full screen: of about 1,300 compounds, about 25 (2%) were called active. Not shown: some 9% with an inconclusive outcome. Calls follow the shape of the dose curve; as a rule, active = well fitted activation curve with a large enough effect; inconclusive = small, poorly fitted or top-dose-only effect; inactive = flat fitted curve, though single readings scatter. Only a selection was taken, and actives are over-represented in it overall.
Result category, one only: active, inactive

Completed entries (count: 10):
> print(dat)
                                    compound     label
 1  COc1ccc(C2=Nn3c(nnc3-c3ccccc3Cl)SC2)cc1OC1CCOC1 (stereo not given)    active
 2                Nc1nc2sc3c(c2c(=O)s1)CCCC3  inactive
 3  COc1ccc(S(=O)(=O)N(C)C)cc1NC(=O)c1ccc(OCC(=O)N2CCOCC2)c(OC)c1  inactive
 4  COc1ccc(NC(C)=O)cc1S(=O)(=O)Nc1ccc2c(c1)OCCO2  inactive
 5  COCCN(Cc1ccccc1)C(=O)c1cc(-c2ccc(OC)c(OC)c2)nc2ccccc12  inactive
 6          CCN(CC)c1ncnc2c1cnn2Cc1ccc(C)cc1  inactive
 7       Cc1nc(N2CCOCC2)c2cc(-c3ccccc3)sc2n1    active
 8   COc1cc(-c2nc(Cc3ccccc3Cl)no2)cc(OC)c1OC  inactive
 9  CCN(CC)c1nc2ccccc2nc1C(C#N)C(=O)NCCCOC (stereo not given)  inactive
10         COCCNc1nc(Nc2ccc(C)cc2C)c2sccc2n1    active

Ask: Returns: the outcome recorded for `COc1cc(SC)ccc1C(=O)Nc1ccccc1` in this assay.
Result: inactive

Ask: Returns: the outcome recorded for `CC(=O)Nc1ccc(NC(=O)c2cc(C3CC3)nc3c2cnn3C(C)C)cc1` in this assay.
Result: inactive

Ask: Returns: the outcome recorded for `CCOC(=O)c1c(C)c(C(=O)N2CCCCCC2)c(C)n1C` in this assay.
Result: inactive

Ask: Returns: the outcome recorded for CC(CCc1ccco1)NC(=O)c1cccc2c1C(=O)N(C1CCCCC1)C2 (stereo not given) in this assay.
Result: inactive

Ask: Returns: the outcome recorded for `CC(=O)Nc1nc(CC(C)C)cc2c1c(=O)oc1ccccc12` in this assay.
Result: inactive

Ask: Returns: the outcome recorded for `COc1ccc(C(=O)c2cc([N+](=O)[O-])ccc2N2CCOCC2)cc1` in this assay.
Result: inactive

Ask: Returns: the outcome recorded for `CC(=NNC(=S)Nc1ccc(C)cc1)c1ccccn1` in this assay.
Result: inactive

Ask: Returns: the outcome recorded for `COc1cccc(OCCNc2cc(N3CCOCC3)ccc2[N+](=O)[O-])c1` in this assay.
Result: inactive
